- TARGET_SYSTEM: recombinant PRL-2 (Homo sapiens, UniProt Q12974)
- Construct: 6xHis (N, cleaved yes); made in house; host or cells: E. coli One Shot BL21 Star
- Sequence (Q12974 whole entry): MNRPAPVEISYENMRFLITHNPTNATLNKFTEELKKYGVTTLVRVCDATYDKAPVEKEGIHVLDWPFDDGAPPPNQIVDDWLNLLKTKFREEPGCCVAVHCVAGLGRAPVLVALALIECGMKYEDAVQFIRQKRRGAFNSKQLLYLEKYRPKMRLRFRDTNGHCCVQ
- EXPERIMENT_SUMMARY: In vitro phosphatase assay (DiFMUP hydrolysis), PRL-2
- Format: biochemical
- PARTICULARS: FDA-approved drug screen; compared to DMSO
MEASUREMENT_TYPE: % Phosphatase Activity (compared to DMSO) PRL-2 (%)

# MOLECULE, UNIT_TAG, OBS_VALUE
records = [
    ("C[C@H](CCC(=O)O)[C@H]1CC[C@H]2[C@@H]3C(=O)C[C@@H]4CC(=O)CC[C@]4(C)[C@H]3CC(=O)[C@]12C [Dehydrocholic acid]", "%", 118),
    ("CO/N=C(\\C(=O)N[C@@H]1C(=O)N2C(C(=O)OCOC(=O)C(C)(C)C)=C(/C=C\\c3scnc3C)CS[C@H]12)c1csc(N)n1 [Cefditoren Pivoxil]", "%", 94),
    ("NS(=O)(=O)NCCNc1nonc1/C(=N/O)Nc1ccc(F)c(Br)c1 [Epacadostat (INCB024360)]", "%", 98),
    ("CC[C@H]1OC(=O)[C@H](C)[C@@H](O[C@H]2C[C@@](C)(OC)[C@@H](O)[C@H](C)O2)[C@H](C)[C@@H](O[C@@H]2O[C@H](C)C[C@H](N(C)C)[C@H]2O)[C@](C)(O)C[C@@H](C)CN(C)[C@H](C)[C@@H](O)[C@]1(C)O [Azithromycin Dihydrate]", "%", 99),
    ("CO[C@H]1/C=C/O[C@@]2(C)Oc3c(C)c(O)c4c(c3C2=O)C2=NC3(CCN(CC(C)C)CC3)NC2=C(NC(=O)/C(C)=C\\C=C\\[C@H](C)[C@H](O)[C@@H](C)[C@@H](O)[C@@H](C)[C@H](OC(C)=O)[C@@H]1C)C4=O [Rifabutin]", "%", 63),
]

###

- TARGET_SYSTEM: recombinant PRL-1 (Homo sapiens)
- Construct: 6xHis (N, cleaved yes); made in house; host or cells: E. coli One Shot BL21 Star
- EXPERIMENT_SUMMARY: In vitro phosphatase assay (DiFMUP hydrolysis), PRL-1; further: test concentration or dose not given here
- Type: biochemical
- PARTICULARS: FDA-approved drug screen; compared to DMSO
Counter-ions that a name gives are not always drawn.
Each entry below carries its recorded % Phosphatase Activity (compared to DMSO) PRL-1.
MEASUREMENT_TYPE: % Phosphatase Activity (compared to DMSO) PRL-1 (%)

# MOLECULE, OBS_VALUE
rows = [
    ("CCC/N=C1\\S/C(=C\\c2ccc(OC[C@H](O)CO)c(Cl)c2)C(=O)N1c1ccccc1C", 88),
    ("CCN(CCO)CCCC(C)Nc1ccnc2cc(Cl)ccc12 (stereo not shown) [Hydroxychloroquine Sulfate]", 96),
    ("CC(=O)OCC(=O)NCCCOc1cccc(CN2CCCCC2)c1 [Roxatidine Acetate HCl]", 96),
    ("COC(=O)c1ccc2c(c1)NC(=O)/C2=C(\\Nc1ccc(N(C)C(=O)CN2CCN(C)CC2)cc1)c1ccccc1", 92),
    ("CCCCCCCC(=O)N[C@H](CN1CCCC1)[C@H](O)c1ccc2c(c1)OCCO2.O=C(O)C(O)C(O)C(=O)O [Eliglustat Tartrate]", 96),
    ("CC(=O)CCCCn1c(=O)c2c(ncn2C)n(C)c1=O", 85),
    ("CCCN1CCCC[C@H]1C(=O)Nc1c(C)cccc1C [Ropivacaine HCl]", 100),
    ("CCn1cc(C(=O)O)c(=O)c2cc(F)c(N3CCNCC3)cc21", 131),
    ("N=C(N)NC(=O)Cc1c(Cl)cccc1Cl [Guanfacine Hydrochloride]", 103),
    ("CC(C)COc1ccc(CNC(=O)N(Cc2ccc(F)cc2)C2CCN(C)CC2)cc1", 95),
    ("Cc1cncc(CN2CCC(=C3c4ccc(Cl)cc4CCc4cccnc43)CC2)c1.O=C(O)/C=C/C(=O)O [Rupatadine Fumarate]", 92),
    ("CN(C)[C@@H]1C(O)=C(C(N)=O)C(=O)[C@@]2(O)C(O)=C3C(=O)c4c(O)cccc4[C@@](C)(O)[C@H]3[C@H](O)[C@@H]12 [Oxytetracycline Dihydrate]", 98),
    ("O=C(O)c1nn(Cc2ccc(Cl)cc2Cl)c2ccccc12", 102),
    ("NS(=O)(=O)c1cc2c(cc1Cl)N=CNS2(=O)=O [Chlorothiazide]", 105),
    ("CO/N=C(\\C(=O)N[C@@H]1C(=O)N2C(C(=O)O)=C(COC(C)=O)CS[C@H]12)c1csc(N)n1 [Cefotaxime sodium]", 112),
    ("O=C(Nc1c(Cl)cncc1Cl)c1ccc(OC(F)F)c(OCC2CC2)c1", 107),
]

###

- TARGET_SYSTEM: recombinant PRL-2 (Homo sapiens, UniProt Q12974)
- Construct: 6xHis (N, cleaved yes); made in house; host or cells: E. coli One Shot BL21 Star
- EXPERIMENT_SUMMARY: In vitro phosphatase assay (DiFMUP hydrolysis), PRL-2;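 further: PRL-2 activity read as DiFMUP hydrolysis after 20 min at room temperature with drug, enzyme first pre-reduced at 4 °C for 20 min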
- Format: biochemical
- PARTICULARS: FDA-approved drug screen; compared to DMSO
MEASUREMENT_TYPE: % Phosphatase Activity (compared to DMSO) PRL-2 (%)

# COMPOUND, OBS_VALUE
measured = [
    ("CC(CCc1ccc(O)cc1)NCC(O)c1ccc(O)cc1.Cl (racemic) [Ractopamine HCl]", 113),
    ("CC1(C)S[C@@H]2[C@H](NC(=O)[C@H](N)c3ccc(O)cc3)C(=O)N2[C@H]1C(=O)O", 150),
    ("Cn1c(=O)c2[nH]cnc2n(C)c1=O", 96),
    ("Cc1ccc(-n2nc(C(C)(C)C)cc2NC(=O)NCc2cc(F)ccc2Oc2ccc3c(cnn3CCO)c2)cc1", 103),
]

###

- TARGET_SYSTEM: recombinant PRL-1 (Homo sapiens, UniProt Q93096)
- Construct: 6xHis (N, cleaved yes); made in house; host or cells: E. coli One Shot BL21 Star
- Sequence (Q93096 whole entry): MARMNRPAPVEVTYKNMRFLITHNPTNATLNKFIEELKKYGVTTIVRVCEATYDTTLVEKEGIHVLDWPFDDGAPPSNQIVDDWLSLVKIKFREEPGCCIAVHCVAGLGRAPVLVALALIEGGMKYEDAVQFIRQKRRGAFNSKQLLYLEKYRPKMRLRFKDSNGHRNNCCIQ
- EXPERIMENT_SUMMARY: In vitro phosphatase assay (DiFMUP hydrolysis), PRL-1; further: test concentration or dose not given here
- Type: biochemical
- PARTICULARS: FDA-approved drug screen; activity compared to DMSO
Counter-ions that a name gives are not always drawn.
Each entry below carries its recorded % Phosphatase Activity (compared to DMSO) PRL-1.
MEASUREMENT_TYPE: % Phosphatase Activity (compared to DMSO) PRL-1 (%)

# COMPOUND, UNIT_TAG, OBS_VALUE
records = [
    ("COc1cc(C2Oc3cc([C@H]4Oc5cc(O)cc(O)c5C(=O)[C@@H]4O)ccc3OC2CO)ccc1O (stereo partly drawn) [Silibinin]", "%", 88),
    ("CCOC(=O)C1=C[C@]2(CC)CCCN3CCc4c(n1c1ccccc41)[C@@H]32 [Vinpocetine]", "%", 95),
    ("CSc1nc2cc(Cl)c(Oc3cccc(Cl)c3Cl)cc2[nH]1 [Triclabendazole]", "%", 106),
    ("Clc1ccc(C(Cn2ccnc2)OCc2csc3c(Cl)cccc23)c(Cl)c1 (stereo not drawn) [Sertaconazole nitrate]", "%", 110),
    ("CN(C)CCOc1ccc(/C(=C(/CCCl)c2ccccc2)c2ccccc2)cc1 [Toremifene Citrate]", "%", 95),
    ("CC1(C)[C@H](C(=O)O)N2C(=O)C[C@H]2S1(=O)=O [Sulbactam]", "%", 95),
    ("COc1cc(NS(=O)(=O)c2ccc(N)cc2)nc(OC)n1 [Sulphadimethoxine]", "%", 92),
    ("O=c1sn(-c2cccc3ccccc23)c(=O)n1Cc1ccccc1 [Tideglusib]", "%", 107),
    ("COc1cc([C@@H]2c3cc4c(cc3[C@@H](O[C@@H]3O[C@@H]5CO[C@@H](c6cccs6)O[C@H]5[C@H](O)[C@H]3O)[C@H]3COC(=O)[C@H]23)OCO4)cc(OC)c1O [Teniposide]", "%", 95),
    ("Cc1onc(-c2ccccc2)c1-c1ccc(S(N)(=O)=O)cc1 [Valdecoxib]", "%", 97),
    ("Cc1cc(Nc2cc(N3CCN(C)CC3)nc(Sc3ccc(NC(=O)C4CC4)cc3)n2)n[nH]1 [VX-680 (Tozasertib, MK-0457)]", "%", 89),
    ("CC(C)(C)c1ccc(C(O)CCCN2CCC(C(O)(c3ccccc3)c3ccccc3)CC2)cc1 (stereo not drawn) [Terfenadine]", "%", 96),
    ("CCCC(=O)[O-].[Na+] [Sodium butyrate]", "%", 97),
    ("CC[C@H]1OC(=O)C[C@@H](O)[C@H](C)[C@@H](O[C@@H]2O[C@H](C)[C@@H](O)[C@H](N(C)C)[C@H]2O)[C@@H](CCN2C[C@H](C)C[C@H](C)C2)C[C@@H](C)C(=O)/C=C/C(C)=C/[C@@H]1CO[C@@H]1O[C@H](C)[C@@H](O)[C@@H](OC)[C@H]1OC [Tilmicosin]", "%", 89),
    ("Cn1ncc(Cl)c1-c1cc(C(=O)N[C@H](CN)Cc2ccc(F)c(F)c2)oc1Cl [Uprosertib (GSK2141795)]", "%", 95),
]

Hey, just so you know, these numbers are from paper PMC8119466.
